# MEASUREMENT NOTES: Half life in healthy mouse at 50 mg/kg
# Type: ADME, organism-based
# Design: dose 50 mg/kg
# TEST SETTINGS: in vivo
OUTCOME MEASURE: half-life (min)
# output: bare number, implied unit min

Input: Param item = "C[C@H]1c2cccc(O)c2C(=O)C2=C(O)[C@]3(O)C(=O)C(C(N)=O)=C(O)[C@@H](N(C)C)[C@@H]3[C@@H](O)[C@@H]21.O" ; retrieve measured half-life.
Output: 168
